assayProcedure: Solubility of piracetam and pantothenic acid in stock
Format: physicochemical
runConditions: glycerin/2,3 butane diol stock, organic solvent or mixture
measuredQuantity: solubility (mg/mL)

{"compound": "NC(=O)CN1CCCC1=O [Piracetam, piracetam]", "quantitativeResult": 36.5}

----------
assayProcedure: Trans resveratrol solubility in stock with solvents and co-solutes (incremental addition, heat gun)
Assay type: physicochemical
runConditions: glycerin/2,3 butane diol stock (70:30 mol), organic solvent or mixture, thermodynamic from solid; pure stock (70:30 mole glycerin:2,3 butane diol); read-out: solubility in stock
measuredQuantity: solubility (mg/mL)

{"molecule": "Oc1ccc(/C=C/c2cc(O)cc(O)c2)cc1 [TR, Trans-resveratrol]", "quantitativeResult": 60}

----------
assayProcedure: Trans resveratrol solubility in stock with solvents and co-solutes (incremental addition, heat gun)
Format: physicochemical
runConditions: organic solvent or mixture, thermodynamic from solid; flavored glycerin (with 2,3 butane diol added) instead of regular stock; read-out: solubility

{"molecule": "Oc1ccc(/C=C/c2cc(O)cc(O)c2)cc1 [TR, Trans-resveratrol]", "solubility": "45 mg/mL"}

Sourced from patent US20180228897A1
